// values below are reported hemolysis at 1 h, 100 µM
Test: Hemolytic activity in mouse erythrocytes at 100 uM to 1 mM after 1 hr by spectrophotometry
Assay type: ADME, cell-based, Erythrocyte
Conditions: read-out: Activity
Non-standard residues stand in square brackets, D forms with d. Residues, ends and D or L forms follow the SMILES beside them. ξ: configuration not given here. *: point of attachment. Hexanoyl(4ξ-Me) = CCC(C)CCC(=O)*; Myristoyl = CCCCCCCCCCCCCC(=O)*; dDab = NCC[C@@H](N)C(=O)O; Dab = NCC[C@H](N)C(=O)O

compound: CCC(C)CCC(=O)N[C@H](CCN)C(=O)N[C@@H](CCN)C(=O)N[C@@H](CCN)C(=O)N[C@@H](CC(C)C)C(=O)N[C@H](Cc1ccccc1)C(=O)N[C@@H](CCN)C(=O)N[C@@H](CCN)C(=O)N[C@@H](CC(C)C)C(N)=O (stereo partly drawn) ({Hexanoyl(4ξ-Me)}-[dDab][Dab][Dab]L[dF][Dab][Dab]L-NH2)
hemolysis at 1 h, 100 µM / %: 1.79
//
compound: CC(C)CCCC(=O)N[C@H](CCN)C(=O)N[C@@H](CCN)C(=O)N[C@@H](CC(C)C)C(=O)N[C@H](Cc1ccccc1)C(=O)N[C@@H](CCN)C(N)=O
hemolysis at 1 h, 100 µM / %: 1.14
//
compound: CCC(C)CCC(=O)N[C@H](CCN)C(=O)N[C@H]1CCNC(=O)[C@H](CC(C)C)NC(=O)[C@H](CCN)NC(=O)[C@H](CCN)NC(=O)[C@@H](Cc2ccccc2)NC(=O)[C@H](CC(C)C)NC(=O)[C@H](CCN)NC1=O (some centres undefined)
hemolysis at 1 h, 100 µM / %: 2.02
//
compound: CCCCCCCCCCCCCC(=O)N[C@H](CCN)C(=O)N[C@@H](CCN)C(=O)N[C@@H](CCN)C(=O)N[C@@H](CC(C)C)C(=O)N[C@H](Cc1ccccc1)C(=O)N[C@@H](CCN)C(=O)N[C@@H](CCN)C(=O)N[C@@H](CC(C)C)C(N)=O (Myristoyl-[dDab][Dab][Dab]L[dF][Dab][Dab]L-NH2)
hemolysis at 1 h, 100 µM / %: 76.9
